Where these numbers come from: paper PMC10761396

target of assay: human (non-selective) ER
protocol summary: ER radioligand ([3H]estradiol) receptor-binding assay
condition set: follow-up dose–response assay
measured property: Ki (nM)

C[C@]12CCC(=O)C[C@@H]1CC[C@@H]1[C@@H]2CC[C@@]2(C)[C@H]1CC[C@]2(C)O [Mestanolone, mestanolone, reference compound] ... 520

====

Test system: aromatase
protocol summary: ToxCast aromatase assays (TOX21_Aromatase_Inhibition) and final ToxCast call
Assay type: cell-based
condition set: aromatase overall ToxCast call
Excerpt: The performance of different in silico models for ED effects tends to be evaluated on single model for a single effect, such as ER or AR binding, agonism or antagonism (normally by the developer), or a limited number of models using multiple chemicals (Weyrich et al. [2022]). Multi-organisation collaborations have also evaluated multiple models for a specific effect e.g. ER (Mansouri et al. [2016]) and AR (Mansouri et al. [2020]) effects. […]
measured property: ToxCast result

O=C(O)c1ccc(C(=O)O)cc1 ... Negative
CCCCN(CCCC)c1ccc(C(=O)c2ccccc2C(=O)O)c(O)c1 ... Negative
C[C@]12CCC(=O)C[C@@H]1CC[C@@H]1[C@@H]2CC[C@@]2(C)[C@H]1CC[C@]2(C)O [Mestanolone, mestanolone, reference compound] ... Negative
